Measured values drawn from ChEMBL document CHEMBL2417486 for this set.

Each item that follows carries a reported solubility.
Test: Aqueous solubility of the compound by spectrophotometric analysis
Format: physicochemical
Could you give me the number in µM? Just the number is fine.

Take a look at these entries with their results.
O=C(c1ccccc1)c1[nH]c2[nH]cnc(=O)c2c1-c1cc(Br)cc(Br)c1	40
O=C(c1ccccc1)c1[nH]c2[nH]cnc(=O)c2c1-c1cncc(Br)c1	30
O=C(c1ccccc1)c1[nH]c2[nH]cnc(=O)c2c1-c1ccccc1	10

Value of solubility reported for the molecule O=C(c1ccccc1)c1[nH]c2[nH]cnc(=O)c2c1-c1cccc(F)c1 is 65
